system-tested: Potassium voltage-gated channel subfamily KQT member 1 (Homo sapiens) (UniProt P51787)
Sequence (P51787 whole entry, looked up): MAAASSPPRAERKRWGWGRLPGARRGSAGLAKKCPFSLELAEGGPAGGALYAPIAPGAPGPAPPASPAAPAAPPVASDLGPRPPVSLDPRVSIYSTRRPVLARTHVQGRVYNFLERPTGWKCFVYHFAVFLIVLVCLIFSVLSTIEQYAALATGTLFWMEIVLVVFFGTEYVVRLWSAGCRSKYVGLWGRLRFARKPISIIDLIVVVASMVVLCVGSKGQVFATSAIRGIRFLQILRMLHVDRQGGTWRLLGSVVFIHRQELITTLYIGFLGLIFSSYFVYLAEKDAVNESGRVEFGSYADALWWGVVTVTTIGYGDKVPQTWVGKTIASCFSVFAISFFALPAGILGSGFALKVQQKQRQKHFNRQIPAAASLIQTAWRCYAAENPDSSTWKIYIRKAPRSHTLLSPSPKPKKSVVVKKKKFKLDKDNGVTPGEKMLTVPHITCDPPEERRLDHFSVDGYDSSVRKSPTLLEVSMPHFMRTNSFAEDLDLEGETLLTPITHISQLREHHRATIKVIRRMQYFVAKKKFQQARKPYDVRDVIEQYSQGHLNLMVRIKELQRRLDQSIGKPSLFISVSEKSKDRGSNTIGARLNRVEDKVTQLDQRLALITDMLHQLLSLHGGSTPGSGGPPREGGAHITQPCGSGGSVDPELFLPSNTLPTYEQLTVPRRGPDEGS
assay-overview: human KCNQ1 current enhancers – cell-based, thallium flux, high-throughput, primary screen (AID 2648)
measurement-conditions: CHO-K1 KCNQ1, thallium flux FluxOR fluorescence, at 10 µM; active compounds read high
The campaign covered roughly 310,000 compounds. About 1,100 (0.35%) were called active. Only a selection was taken, and actives are over-represented in it overall.
quantity-name: B-score

Field: example entries. Status: answers known.
COc1cccc2sc(Nc3nc(C)c(C(C)=O)s3)nc12	inactive
CCN(CC)S(=O)(=O)c1ccc(NC(=O)c2cccnc2Cl)c(NC(=O)c2cccnc2Cl)c1	13 (active)
Cc1ccc(CNC(=O)[C@@H](NC(=O)Cc2ccccc2)C(C)C)cc1	inactive
COC(=O)c1ccccc1NC(=O)C1CCN(S(=O)(=O)c2cc(OC)ccc2OC)CC1	inactive

Respectfully, I request B-score for each entry included below.
1. O=C(N1CCCCC1)N1CCN(C(=O)N2CCCCC2)CC1
2. Cc1cccc(NC(=O)c2cccnc2Cl)n1
3. COc1ccccc1OCc1nc2ccccc2s1
4. COCCNC(=O)CCCN1C(=O)c2ccccc2Sc2ncccc21

Resp:
10 (active)
inactive
inactive
inactive

----------
system-tested: Potassium voltage-gated channel subfamily KQT member 1 (Homo sapiens) (UniProt P51787)
assay-overview: human KCNQ1 current enhancers – cell-based, thallium flux, high-throughput, primary screen (AID 2648)
measurement-conditions: CHO-K1 KCNQ1, thallium flux FluxOR fluorescence, at 10 µM
About 1,100 (0.35%) of roughly 310,000 compounds were called active.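 How the source made its calls: active means fluorescence ratio B-score, a plate-corrected score, at least three library SD, with initial intensity B-score within 5 SD; inactive means the rest.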 Shown is part of a subset that was picked to be rich in actives.
A correct response names exactly one class from active, inactive

Example results:
O=C1/C(=C\Nc2ccccc2)CCN1c1ncccn1	inactive
Cc1cc(Nc2cc(N3CCN(C)CC3)nc(Sc3ccc(NC(=O)C4CC4)cc3)n2)n[nH]1	active
Cc1cc(C)nc(N2CCC(C(=O)Nc3ccc4c(c3)OCCO4)CC2)n1	inactive
Cc1ccc(C(=O)CN2C(=O)NC3(CCc4ccccc43)C2=O)c(C)c1 (stereo unspecified)	inactive
O=c1c2cc(Br)ccc2nc(-c2cccc(Cl)c2)n1O	active
CC1CCN(c2ccc(-c3ccc(NC(=O)c4ccco4)cc3)nn2)CC1	inactive
S=C(NCC1COc2ccccc2O1)Nc1ccc(Br)cc1 (stereo unspecified)	inactive
CC(C)NC(=O)C(c1ccc(F)cc1)N(C(=O)CCC(=O)Nc1ccccn1)c1ccccc1F (stereo unspecified)	inactive

Req: Which outcome did this test record for the compound COc1cccc2cc(C(=O)NCc3ccc(C)cc3)c(=N)oc12 ?
Resp: inactive

Req: Which outcome did this test record for the compound Cc1cc2occ(CC(=O)NNC(=O)c3ccccc3F)c2cc1C ?
Resp: inactive

Req: Which outcome did this test record for the compound O=C1CCCc2c1nc(-c1cccc(Cl)c1)n2O ?
Resp: inactive

----------
system-tested: Potassium voltage-gated channel subfamily KQT member 1 (Homo sapiens)
assay-overview: human KCNQ1 current enhancers – cell-based, thallium flux, high-throughput, primary screen (AID 2648)
measurement-conditions: CHO-K1 KCNQ1, thallium flux FluxOR fluorescence, at 10 µM
Screen size: about 310,000 compounds; about 1,100 (0.35%) were called active.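 Rule for the calls: active = fluorescence ratio B-score, a plate-corrected score, at least three library SD, with initial intensity B-score within 5 SD; inactive = the rest.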 Many of the other results were omitted from the sample, so actives are more common in it than they were.
A correct response names exactly one class from class 1 = active, class 0 = inactive

NC(=O)c1c(Nc2nc3c(F)cccc3s2)sc2c1CCCC2	class 0

Req: Which outcome did this test record for the molecule Cc1ccc(/C=N/NC(=O)c2cc3ccccc3cc2O)o1 ?
Resp: class 1

Req: Which outcome did this test record for the molecule Cc1ccc(OCC(=O)NCCCNC(=O)c2ccco2)cc1C ?
Resp: class 0

Req: Which outcome did this test record for the molecule Oc1ccc(N=Nc2nccs2)c(O)c1 ?
Resp: class 0
